- experimental_details: Study 1: concentrations of methadone in rat plasma, topical administration versus intravenous injection
- Assay type: in vivo
- conditions: rat, in vivo, iv, 0.125 mg/animal; Study 1 Group A: I.V. tail vein, 0.25 mL Test Article 1 (0.5 mg/mL Methadone-Saline Solution); 5 min; individual rats A1-A3; read-out: Concentrations of Methadone in Rat Plasma Samples
value_kind: concentration at 5 min (ng/mL)
State the answer as a number, implicitly in ng/mL.

Data request: Tell me concentration at 5 min reported for CCC(=O)C(CC(C)N(C)C)(c1ccccc1)c1ccccc1 (stereo not shown) [Methadone, 6-dimethylamino-4,4-diphenyl-3-hepatone]
Data returned: 68.7

====

- experimental_details: Solubility of methadone in different solvents
- Assay type: physicochemical
- conditions: organic solvent or mixture; Dehydrated Alcohol, 24 hour
value_kind: solubility at 24 h

Data request: Tell me solubility at 24 h reported for CCC(=O)C(CC(C)N(C)C)(c1ccccc1)c1ccccc1 (stereo not shown)
Data returned: 115 mg/mL

====

- experimental_details: Study 2: concentrations of methadone in rat plasma, topical administration versus intravenous injection
- Format: in vivo
- conditions: rat, in vivo, iv, 0.125 mg; Study 2 Group A: I.V. tail vein, 0.25 mL Test Article 1 (0.5 mg/mL Methadone-Saline Solution); 60 min; individual rats A1-A3; read-out: Concentrations of Methadone in Rat Plasma Samples
- Procedure: The test article was administered intravenously (IV) through the tail vein to animals in Group A. The injection was performed slowly. A gauze pad (1×1 cm) Saturated with 0.2 mL of the appropriate test article was applied to the clipped site on the back of the animals in Groups 2 and 3. The gauze pad was secured by occlusive tape. The animal was wrapped in gauze, which was held in place with Zonas porous tape. […]
value_kind: concentration at 60 min

Data request: Tell me concentration at 60 min reported for CCC(=O)C(CC(C)N(C)C)(c1ccccc1)c1ccccc1 (stereo not shown)
Data returned: 28.1 ng/mL

====

- experimental_details: Study 1: concentrations of methadone in rat plasma, topical administration versus intravenous injection
- Type: in vivo
- conditions: rat, in vivo, iv, 0.125 mg/animal; Study 1 Group A: I.V. tail vein, 0.25 mL Test Article 1 (0.5 mg/mL Methadone-Saline Solution); 2 min; individual rats A1-A3; read-out: Concentrations of Methadone in Rat Plasma Samples
value_kind: concentration at 2 min

Data request: Tell me concentration at 2 min reported for CCC(=O)C(CC(C)N(C)C)(c1ccccc1)c1ccccc1 (stereo not shown)
Data returned: 73.5 ng/mL

====

- experimental_details: Solubility of methadone in different solvents
- Assay type: physicochemical
- conditions: organic solvent or mixture, thermodynamic from solid; diisopropyl adipate, 48 hour
value_kind: solubility at 48 h (mg/mL)
State the answer as a number, implicitly in mg/mL.

Data request: Tell me solubility at 48 h reported for CCC(=O)C(CC(C)N(C)C)(c1ccccc1)c1ccccc1 (stereo not shown)
Data returned: 324

====

- experimental_details: Study 1: concentrations of methadone in rat plasma, topical administration versus intravenous injection
- Type: in vivo
- conditions: rat, in vivo, 0.2 mL of 10% methadone solution; Study 1 Group C: topical dorsal flank, 1 × 1 cm gauze pad with 0.2 mL Test Article 3 (Methadone-DEET Solution 10%); 45 min; individual rats C1-C3; read-out: Concentrations of Methadone in Rat Plasma Samples
value_kind: concentration at 45 min (ng/mL)
State the answer as a number, implicitly in ng/mL.

Data request: Tell me concentration at 45 min reported for CCC(=O)C(CC(C)N(C)C)(c1ccccc1)c1ccccc1 (stereo not shown)
Data returned: 3.83

====

- experimental_details: Solubility of methadone in different solvents
- Format: physicochemical
- conditions: thermodynamic from solid; water, 24 hour
value_kind: solubility at 24 h (µg/mL)
State the answer as a number, implicitly in µg/mL.

Data request: Tell me solubility at 24 h reported for CCC(=O)C(CC(C)N(C)C)(c1ccccc1)c1ccccc1 (stereo not shown)
Data returned: 224

====

- experimental_details: Solubility of methadone in different solvents
- Assay type: physicochemical
- conditions: organic solvent or mixture; PEG - 400, 48 hour
value_kind: solubility at 48 h (mg/mL)
State the answer as a number, implicitly in mg/mL.

Data request: Tell me solubility at 48 h reported for CCC(=O)C(CC(C)N(C)C)(c1ccccc1)c1ccccc1 (stereo not shown)
Data returned: 36.8

====

- experimental_details: Solubility of methadone in different solvents
- Type: physicochemical
- conditions: organic solvent or mixture; DEET (97%), 6 hour
value_kind: solubility at 6 h (mg/mL)
State the answer as a number, implicitly in mg/mL.

Data request: Tell me solubility at 6 h reported for CCC(=O)C(CC(C)N(C)C)(c1ccccc1)c1ccccc1 (stereo not shown)
Data returned: 125

====

- experimental_details: Solubility of methadone in different solvents
- Assay type: physicochemical
- conditions: organic solvent or mixture; Di(propylene glycol), 6 hour
value_kind: solubility at 6 h (mg/mL)
State the answer as a number, implicitly in mg/mL.

Data request: Tell me solubility at 6 h reported for CCC(=O)C(CC(C)N(C)C)(c1ccccc1)c1ccccc1 (stereo not shown) [Methadone, 6-dimethylamino-4,4-diphenyl-3-hepatone]
Data returned: 56.5

====

- experimental_details: Solubility of methadone in different solvents
- Type: physicochemical
- conditions: oil or lipid; Mineral oil, 3 hour
value_kind: solubility at 3 h (mg/mL)
State the answer as a number, implicitly in mg/mL.

Data request: Tell me solubility at 3 h reported for CCC(=O)C(CC(C)N(C)C)(c1ccccc1)c1ccccc1 (stereo not shown) [Methadone, 6-dimethylamino-4,4-diphenyl-3-hepatone]
Data returned: 39.9

====

- experimental_details: Study 2: concentrations of methadone in rat plasma, topical administration versus intravenous injection
- Type: in vivo
- conditions: rat, in vivo, iv, 0.125 mg; Study 2 Group A: I.V. tail vein, 0.25 mL Test Article 1 (0.5 mg/mL Methadone-Saline Solution); 20 min; individual rats A1-A3; read-out: Concentrations of Methadone in Rat Plasma Samples
value_kind: concentration at 20 min

Data request: Tell me concentration at 20 min reported for CCC(=O)C(CC(C)N(C)C)(c1ccccc1)c1ccccc1 (stereo not shown)
Data returned: 55.9 ng/mL

====

- experimental_details: Study 1: concentrations of methadone in rat plasma, topical administration versus intravenous injection
- Assay type: in vivo
- conditions: rat, in vivo, 0.2 mL of 23.9% methadone-diisopropyl adipate solution; Study 1 Group B: topical dorsal flank, 1 × 1 cm gauze pad with 0.2 mL Test Article 2 (Methadone-Diisopropyl Adipate Solution 23.9%); 45 min; individual rats B1-B3; read-out: Concentrations of Methadone in Rat Plasma Samples
value_kind: concentration at 45 min (ng/mL)
State the answer as a number, implicitly in ng/mL.

Data request: Tell me concentration at 45 min reported for CCC(=O)C(CC(C)N(C)C)(c1ccccc1)c1ccccc1 (stereo not shown)
Data returned: 11.5

====

- experimental_details: Solubility of methadone in different solvents
- Assay type: physicochemical
- conditions: organic solvent or mixture; DEET (97%), 3 hour
value_kind: solubility at 3 h (mg/mL)
State the answer as a number, implicitly in mg/mL.

Data request: Tell me solubility at 3 h reported for CCC(=O)C(CC(C)N(C)C)(c1ccccc1)c1ccccc1 (stereo not shown)
Data returned: 124

====

- experimental_details: Solubility of methadone in different solvents
- Assay type: physicochemical
- conditions: oil or lipid; Mineral oil, 6 hour
- Protocol: In this experiment, the solubility of methadone in a number of different solvents was evaluated. The solvents evaluated were mineral oil, N-methyl-2-pyrrolidone, diisopropyl adipate, DEET, PEG, Di (propylene glycol), dehydrated alcohol and water. […] The stability of the solutions was also evaluated.
value_kind: solubility at 6 h
Quote the value and follow it with the unit of measurement.

Data request: Tell me solubility at 6 h reported for CCC(=O)C(CC(C)N(C)C)(c1ccccc1)c1ccccc1 (stereo not shown)
Data returned: 37.2 mg/mL

====

- experimental_details: Study 1: concentrations of methadone in rat plasma, topical administration versus intravenous injection
- Assay type: in vivo
- conditions: rat, in vivo, 0.2 mL of 23.9% methadone-diisopropyl adipate solution; Study 1 Group B: topical dorsal flank, 1 × 1 cm gauze pad with 0.2 mL Test Article 2 (Methadone-Diisopropyl Adipate Solution 23.9%); 60 min; individual rats B1-B3; read-out: Concentrations of Methadone in Rat Plasma Samples
value_kind: concentration at 60 min (ng/mL)
State the answer as a number, implicitly in ng/mL.

Data request: Tell me concentration at 60 min reported for CCC(=O)C(CC(C)N(C)C)(c1ccccc1)c1ccccc1 (stereo not shown)
Data returned: 11.3

====

- experimental_details: Solubility of methadone in different solvents
- Format: physicochemical
- conditions: organic solvent or mixture; Dehydrated Alcohol, 3 hour
value_kind: solubility at 3 h (mg/mL)
State the answer as a number, implicitly in mg/mL.

Data request: Tell me solubility at 3 h reported for CCC(=O)C(CC(C)N(C)C)(c1ccccc1)c1ccccc1 (stereo not shown)
Data returned: 114
